Target: T1, human DR3 (TNFRSF25) expressed on cells (human, UniProt Q93038 25-417)
T1 sequence: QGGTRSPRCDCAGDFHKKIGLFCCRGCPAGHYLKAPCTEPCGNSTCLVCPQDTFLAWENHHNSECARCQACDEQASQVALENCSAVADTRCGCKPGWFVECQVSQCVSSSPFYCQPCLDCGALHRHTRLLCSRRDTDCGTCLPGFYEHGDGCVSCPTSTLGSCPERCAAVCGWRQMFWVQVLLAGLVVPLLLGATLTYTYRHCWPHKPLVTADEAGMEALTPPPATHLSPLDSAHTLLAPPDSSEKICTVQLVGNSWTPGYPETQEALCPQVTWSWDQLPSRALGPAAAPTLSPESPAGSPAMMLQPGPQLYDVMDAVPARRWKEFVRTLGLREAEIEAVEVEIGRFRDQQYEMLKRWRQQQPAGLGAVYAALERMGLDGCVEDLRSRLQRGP
Experiment: cell-based or functional assay
EXPERIMENTAL_ENDPOINT: EC50 (pM), DR3 Jurkat reporter
Kindly provide the numeric value in pM only, without the unit symbol.

INSERT INTO measurements (binder, experimental_endpoint, quantitative_result) VALUES
  ('VHg1/VLg11 (antibody, human IgG1, V domains shown, human IgG1; also called H1L11; VHg1/VL11) VH: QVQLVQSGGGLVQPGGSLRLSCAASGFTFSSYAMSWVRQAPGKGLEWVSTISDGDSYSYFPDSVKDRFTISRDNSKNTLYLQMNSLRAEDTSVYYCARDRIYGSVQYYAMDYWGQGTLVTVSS VL: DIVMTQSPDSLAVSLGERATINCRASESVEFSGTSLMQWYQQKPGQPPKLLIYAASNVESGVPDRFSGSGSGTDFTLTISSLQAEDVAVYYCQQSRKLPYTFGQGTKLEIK', 'EC50 (pM), DR3 Jurkat reporter', 331),
  ('VHg6/VLg12 (antibody, human IgG1, V domains shown, human IgG1) VH: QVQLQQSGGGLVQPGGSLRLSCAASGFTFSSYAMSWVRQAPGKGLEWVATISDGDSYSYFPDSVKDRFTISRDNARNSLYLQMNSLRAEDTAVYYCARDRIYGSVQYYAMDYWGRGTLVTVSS VL: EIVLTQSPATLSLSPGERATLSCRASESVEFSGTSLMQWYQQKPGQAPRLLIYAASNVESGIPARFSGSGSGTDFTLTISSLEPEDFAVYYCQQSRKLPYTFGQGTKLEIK', 'EC50 (pM), DR3 Jurkat reporter', 134),
  ('VHg3/VLg12 (antibody, human IgG1, V domains shown, human IgG1) VH: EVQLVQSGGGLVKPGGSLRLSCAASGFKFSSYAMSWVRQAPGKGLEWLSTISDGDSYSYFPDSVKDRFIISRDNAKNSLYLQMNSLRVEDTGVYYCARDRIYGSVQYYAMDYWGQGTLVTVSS VL: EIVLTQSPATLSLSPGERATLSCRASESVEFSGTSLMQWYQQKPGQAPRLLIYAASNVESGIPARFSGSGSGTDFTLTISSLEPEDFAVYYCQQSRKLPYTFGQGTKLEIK', 'EC50 (pM), DR3 Jurkat reporter', 1480),
  ('VHg6/VLg2 (antibody, human IgG1, V domains shown, human IgG1) VH: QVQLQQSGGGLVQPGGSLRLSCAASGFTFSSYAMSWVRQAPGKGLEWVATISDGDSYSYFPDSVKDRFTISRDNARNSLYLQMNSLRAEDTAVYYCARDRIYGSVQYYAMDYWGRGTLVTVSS VL: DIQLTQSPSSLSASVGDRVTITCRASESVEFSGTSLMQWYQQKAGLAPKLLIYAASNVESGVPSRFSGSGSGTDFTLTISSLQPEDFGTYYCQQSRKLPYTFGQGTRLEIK', 'EC50 (pM), DR3 Jurkat reporter', 118),
  ('VHg3/VLg11 (antibody, human IgG1, V domains shown, human IgG1) VH: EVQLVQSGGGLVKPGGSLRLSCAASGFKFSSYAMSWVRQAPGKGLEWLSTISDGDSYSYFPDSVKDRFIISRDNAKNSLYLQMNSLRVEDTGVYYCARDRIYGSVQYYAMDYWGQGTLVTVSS VL: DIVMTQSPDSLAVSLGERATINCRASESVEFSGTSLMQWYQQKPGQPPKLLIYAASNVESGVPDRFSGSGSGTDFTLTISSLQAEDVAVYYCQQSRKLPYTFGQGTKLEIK', 'EC50 (pM), DR3 Jurkat reporter', 1230),
  ('VHg9/VLg11 (antibody, human IgG1, V domains shown, human IgG1) VH: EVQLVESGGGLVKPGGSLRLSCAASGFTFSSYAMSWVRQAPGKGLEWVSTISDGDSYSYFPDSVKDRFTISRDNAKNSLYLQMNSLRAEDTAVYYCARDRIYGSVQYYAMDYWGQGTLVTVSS VL: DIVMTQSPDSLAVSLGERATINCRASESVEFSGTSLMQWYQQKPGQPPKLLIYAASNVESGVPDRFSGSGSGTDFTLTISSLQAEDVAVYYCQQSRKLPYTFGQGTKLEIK', 'EC50 (pM), DR3 Jurkat reporter', 261),
  ('VHg6/VLg4 (antibody, human IgG1, V domains shown, human IgG1) VH: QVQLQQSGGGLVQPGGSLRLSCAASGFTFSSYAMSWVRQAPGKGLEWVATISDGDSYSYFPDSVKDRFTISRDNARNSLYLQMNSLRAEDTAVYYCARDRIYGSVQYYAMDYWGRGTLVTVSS VL: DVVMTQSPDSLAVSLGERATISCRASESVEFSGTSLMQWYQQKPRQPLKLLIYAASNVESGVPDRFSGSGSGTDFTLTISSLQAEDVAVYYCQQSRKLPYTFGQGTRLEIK', 'EC50 (pM), DR3 Jurkat reporter', 115),
  ('VHg10/VLg4 (antibody, human IgG1, V domains shown, human IgG1) VH: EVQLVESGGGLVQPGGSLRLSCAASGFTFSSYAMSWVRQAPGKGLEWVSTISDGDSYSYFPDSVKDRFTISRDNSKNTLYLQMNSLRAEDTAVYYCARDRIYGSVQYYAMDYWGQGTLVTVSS VL: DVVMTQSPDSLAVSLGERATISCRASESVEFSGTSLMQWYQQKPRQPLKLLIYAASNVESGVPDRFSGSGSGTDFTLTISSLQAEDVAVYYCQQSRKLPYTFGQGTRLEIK', 'EC50 (pM), DR3 Jurkat reporter', 570);

Exercise: Param item = VHg2/VLg2 (antibody, human IgG1, V domains shown, human IgG1) VH: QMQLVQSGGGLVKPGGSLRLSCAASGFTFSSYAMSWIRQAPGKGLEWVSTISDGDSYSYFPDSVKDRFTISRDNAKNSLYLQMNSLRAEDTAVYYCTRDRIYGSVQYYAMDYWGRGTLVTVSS VL: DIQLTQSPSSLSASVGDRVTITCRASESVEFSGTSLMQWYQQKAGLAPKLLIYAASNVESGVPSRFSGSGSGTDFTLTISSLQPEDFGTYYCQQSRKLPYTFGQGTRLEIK ; retrieve measured EC50 (pM), DR3 Jurkat reporter.
Solution: 103

Exercise: Can you share its EC50 (pM), DR3 Jurkat reporter? I mean this binder: B9-hIgG1 (antibody, V domains shown, chimeric: mouse B9 variable regions, human IgG1; also called B9-H1; Non-humanised B9) VH: EVQLVESGGGLVKPGGSLKLSCSASGFTFSSYAMSWVRQTPEKRLEWVATISDGDSYSYFPDSVKDRFIISRDNAKNNLFLQMSHLRSEDTAMYYCTRDRIYGSVQYYAMDYWGQGTSVTVSS VL: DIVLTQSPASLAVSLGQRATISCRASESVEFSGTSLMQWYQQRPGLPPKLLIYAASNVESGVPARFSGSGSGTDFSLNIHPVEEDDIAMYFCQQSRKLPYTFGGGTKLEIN
Solution: 457

The origin of these recorded values is patent WO2025083273A1.
